# target_or_test_system: HLA-A*0201 (Human)
measurement_label: binding affinity ratio (IC50 of standard peptide / IC50 of test peptide)

binder: IVFLIFFDL (modifications not checked) [… (Pf SSP2 12, 9-mer A02 supermotif peptide)]
reported_value: 0.0024
//
binder: VLLGGVGLV (modifications not checked) [… (P. falciparum EXP-1, position 91, 9 amino acids)]
reported_value: 0.029
//
binder: GIAGGLALL (modifications not checked) [… (Pf SSP2 503, 9-mer)]
reported_value: 0.0022
//
binder: YLLMDCSGSI (modifications not checked) [SSP2 50 …]
reported_value: 0.17
//
binder: GLALLACAGL (modifications not checked) [… (Pf SSP2 507, 10-mer)]
reported_value: 0.017
//
binder: LLMDCSGSI (modifications not checked) [… (Pf SSP2 51, 9-mer A02 supermotif peptide)]
reported_value: 0.046
//
binder: LLGGVGLVL (modifications not checked) [… (EXP position 92, 9 amino acids)]
reported_value: 0.0038
//
binder: SVFFLALFFI (modifications not checked) [… (P. falciparum EXP-1, position 5, 10 amino acids)]
reported_value: 0.0017
//
binder: VIGPFMKAV (modifications not checked) [SSP2 226 …]
reported_value: 0.0004
//
binder: VIVFLIFFDL (modifications not checked) [SSP2 11 …]
reported_value: 0.0038
//
binder: SAWENVKNV (modifications not checked) [SSP2 218 …]
reported_value: 0.0019
//
binder: HLGNVKYLV (modifications not checked) [… (Pf SSP2 3, 9-mer)]
reported_value: 0.0017
//
binder: LIFFDLFLV (modifications not checked) [… (Pf SSP2 15, 9-mer A02 supermotif peptide)]
reported_value: 0.089
